- experiment description: Plasma PK of H3B-6545 capsules in fasted patients, phase 1 dose escalation
- Format: in vivo, human
- condition description: female, human, plasma, oral, 600 mg, Cycle 1 Day 15; 600 mg QD capsules, fasted patients; Median (Min, Max)
assay readout: Tmax (h)
Entry rule: numbers only, all in h.

For CN(C)C(=O)/C=C/CNCCOc1ccc(/C(=C(/CC(F)(F)F)c2ccccc2)c2ccc3[nH]nc(F)c3c2)cn1 [H3B-6545] the molecule record lists Tmax as 4

----------
- experiment description: Plasma PK of H3B-6545 capsules in fasted patients, phase 1 dose escalation
- Format: in vivo, human
- condition description: female, human, plasma, oral, 100 mg, Cycle 1 Day 15; 100 mg QD capsules, fasted patients; Geometric Mean (GeoCV %)
assay readout: half-life

For CN(C)C(=O)/C=C/CNCCOc1ccc(/C(=C(/CC(F)(F)F)c2ccccc2)c2ccc3[nH]nc(F)c3c2)cn1 the compound record lists half-life as 11.5 h
